Tested on: ncRNAs (SEQ ID NO 28-89)
Test method notes: ncRNA arrays of melanocytes, keratinocytes, normal skin, melanoma cell lines and patient samples
Design: species or system human
Recorded conditions: melanoma patient 7 sample compared to normal skin
Value type: ncRNA array expression, patient 7
Answer with a number only.

Solved cases (2 shown):
Specify ncRNA array expression, patient 7 for SEQ ID NO 80 (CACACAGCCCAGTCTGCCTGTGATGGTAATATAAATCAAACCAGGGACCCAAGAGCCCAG; listed as DNA, chemistry not given here; listed as Homo sapiens) and stop.
−1.213

Specify ncRNA array expression, patient 7 for SEQ ID NO 39 (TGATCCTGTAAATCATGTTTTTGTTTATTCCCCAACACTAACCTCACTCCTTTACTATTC; listed as DNA, chemistry not given here; listed as Homo sapiens) and stop.
−1.086

Further cases:
Specify ncRNA array expression, patient 7 for SEQ ID NO 38 (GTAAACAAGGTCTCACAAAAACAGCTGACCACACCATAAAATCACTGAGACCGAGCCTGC; listed as DNA, chemistry not given here; listed as Homo sapiens) and stop.
−1.64

Specify ncRNA array expression, patient 7 for SEQ ID NO 79 (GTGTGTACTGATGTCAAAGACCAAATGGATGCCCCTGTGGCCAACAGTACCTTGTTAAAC; listed as DNA, chemistry not given here; listed as Homo sapiens) and stop.
1.729

* * *

System: ncRNAs (SEQ ID NO 28-89)
Test method notes: ncRNA arrays of melanocytes, keratinocytes, normal skin, melanoma cell lines and patient samples
Parameters: species or system human
Recorded conditions: melanoma patient 30 sample compared to normal skin
# ncRNA array expression, patient 30 per record follows
Answer with a number only.

Solved cases (3 shown):
Provide ncRNA array expression, patient 30, recorded with ncRNAs (SEQ ID NO 28-89), of SEQ ID NO 54 (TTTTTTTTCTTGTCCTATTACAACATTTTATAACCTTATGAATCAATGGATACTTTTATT; listed as DNA, chemistry not given here; listed as Homo sapiens)
−0.1125

Provide ncRNA array expression, patient 30, recorded with ncRNAs (SEQ ID NO 28-89), of SEQ ID NO 64 (TTGCCTAGGAACAAAGAAGGCTTGTGAGGAGATCAAGGAACTTACATGAAATTGTAGGAA; listed as DNA, chemistry not given here; listed as Homo sapiens)
−2.097

Provide ncRNA array expression, patient 30, recorded with ncRNAs (SEQ ID NO 28-89), of SEQ ID NO 62 (AATCGTTAATATCATTGATATTAAGTAATTTCCCCACTCTGAGTGAATACTTTGATGATG; listed as DNA, chemistry not given here; listed as Homo sapiens)
−1.545

Further cases:
Provide ncRNA array expression, patient 30, recorded with ncRNAs (SEQ ID NO 28-89), of SEQ ID NO 47 (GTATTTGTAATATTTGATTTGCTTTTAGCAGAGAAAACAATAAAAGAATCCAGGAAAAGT; listed as DNA, chemistry not given here; listed as Homo sapiens)
−1.529

Provide ncRNA array expression, patient 30, recorded with ncRNAs (SEQ ID NO 28-89), of SEQ ID NO 74 (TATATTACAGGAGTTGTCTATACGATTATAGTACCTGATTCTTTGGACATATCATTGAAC; listed as DNA, chemistry not given here; listed as Homo sapiens)
−1.075
